tested on: melanoma A375 tumor cell line; assay: MTT reduction assay, A375 melanoma cells; assay type: cell-based, human; conditions: MTT, 72 h
pIC50: −log10 of the molar value.
This listing pairs molecules with measured pIC50.

# molecule, pIC50
data = [
    ("Cc1ncc([N+](=O)[O-])n1CCO.Cc1ncc([N+](=O)[O-])n1CCO.O=[N+]([O-])[O-].[Ag+] [[(MTZ)2AgNO3]]", 5.52),
    ("O=[N+]([O-])[O-].[Ag+] [AgNO3, silver(I) nitrate]", 4.95),
    ("Clc1ccc(COC(Cn2ccnc2)c2ccc(Cl)cc2Cl)c(Cl)c1.Clc1ccc(COC(Cn2ccnc2)c2ccc(Cl)cc2Cl)c(Cl)c1.[Ag+].[F][Sb-]([F])([F])([F])([F])[F] (stereo not shown) [[Ag(MCZ)2SbF6]]", 4.73),
    ("N.N.[Cl][Pt][Cl] [Cisplatin, cisplatin]", 5.07),
]

Origin of measurements: paper PMC11121064
